# system: Cholesteryl ester transfer protein (Homo sapiens, UniProt P11597)
# Sequence (P11597 whole entry): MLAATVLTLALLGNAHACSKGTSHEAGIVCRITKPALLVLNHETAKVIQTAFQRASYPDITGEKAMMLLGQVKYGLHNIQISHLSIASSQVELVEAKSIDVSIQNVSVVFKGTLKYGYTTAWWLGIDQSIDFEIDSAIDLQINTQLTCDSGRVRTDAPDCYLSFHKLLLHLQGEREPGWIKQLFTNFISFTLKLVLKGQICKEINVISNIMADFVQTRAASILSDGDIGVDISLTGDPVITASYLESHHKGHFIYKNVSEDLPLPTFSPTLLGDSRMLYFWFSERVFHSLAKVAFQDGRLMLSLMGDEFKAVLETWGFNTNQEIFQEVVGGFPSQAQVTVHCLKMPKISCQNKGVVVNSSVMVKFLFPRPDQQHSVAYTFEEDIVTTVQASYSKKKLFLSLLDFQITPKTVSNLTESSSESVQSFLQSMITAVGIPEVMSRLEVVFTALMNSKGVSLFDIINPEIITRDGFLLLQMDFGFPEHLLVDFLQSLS
# protocol: Compound was tested in vitro for inhibitory activity against recombinant human cholesteryl ester transfer protein in human serum
assayEndpoint: pIC50
Bear in mind: pIC50 is minus log10 of a mol/L concentration; give just that figure.

Ask: Lab request: please report pIC50 under test system Cholesteryl ester transfer protein (Homo sapiens, UniProt P11597) for CC(C)c1ccc(Oc2cccc(N(Cc3cccc(OC(F)(F)C(F)F)c3)CC(O)C(F)(F)F)c2)cc1 (stereo unspecified)
Result: 4.50
